ASSAY READOUT: IC50 (nM)
State just the number; it will be interpreted in nM.

Specify the recorded IC50 for O=S(=O)(NCCc1c[nH]c2ccccc12)c1cc(F)ccc1Cl , system: Maltase-glucoamylase (Homo sapiens, UniProt O43451).
Sequence (O43451 whole entry): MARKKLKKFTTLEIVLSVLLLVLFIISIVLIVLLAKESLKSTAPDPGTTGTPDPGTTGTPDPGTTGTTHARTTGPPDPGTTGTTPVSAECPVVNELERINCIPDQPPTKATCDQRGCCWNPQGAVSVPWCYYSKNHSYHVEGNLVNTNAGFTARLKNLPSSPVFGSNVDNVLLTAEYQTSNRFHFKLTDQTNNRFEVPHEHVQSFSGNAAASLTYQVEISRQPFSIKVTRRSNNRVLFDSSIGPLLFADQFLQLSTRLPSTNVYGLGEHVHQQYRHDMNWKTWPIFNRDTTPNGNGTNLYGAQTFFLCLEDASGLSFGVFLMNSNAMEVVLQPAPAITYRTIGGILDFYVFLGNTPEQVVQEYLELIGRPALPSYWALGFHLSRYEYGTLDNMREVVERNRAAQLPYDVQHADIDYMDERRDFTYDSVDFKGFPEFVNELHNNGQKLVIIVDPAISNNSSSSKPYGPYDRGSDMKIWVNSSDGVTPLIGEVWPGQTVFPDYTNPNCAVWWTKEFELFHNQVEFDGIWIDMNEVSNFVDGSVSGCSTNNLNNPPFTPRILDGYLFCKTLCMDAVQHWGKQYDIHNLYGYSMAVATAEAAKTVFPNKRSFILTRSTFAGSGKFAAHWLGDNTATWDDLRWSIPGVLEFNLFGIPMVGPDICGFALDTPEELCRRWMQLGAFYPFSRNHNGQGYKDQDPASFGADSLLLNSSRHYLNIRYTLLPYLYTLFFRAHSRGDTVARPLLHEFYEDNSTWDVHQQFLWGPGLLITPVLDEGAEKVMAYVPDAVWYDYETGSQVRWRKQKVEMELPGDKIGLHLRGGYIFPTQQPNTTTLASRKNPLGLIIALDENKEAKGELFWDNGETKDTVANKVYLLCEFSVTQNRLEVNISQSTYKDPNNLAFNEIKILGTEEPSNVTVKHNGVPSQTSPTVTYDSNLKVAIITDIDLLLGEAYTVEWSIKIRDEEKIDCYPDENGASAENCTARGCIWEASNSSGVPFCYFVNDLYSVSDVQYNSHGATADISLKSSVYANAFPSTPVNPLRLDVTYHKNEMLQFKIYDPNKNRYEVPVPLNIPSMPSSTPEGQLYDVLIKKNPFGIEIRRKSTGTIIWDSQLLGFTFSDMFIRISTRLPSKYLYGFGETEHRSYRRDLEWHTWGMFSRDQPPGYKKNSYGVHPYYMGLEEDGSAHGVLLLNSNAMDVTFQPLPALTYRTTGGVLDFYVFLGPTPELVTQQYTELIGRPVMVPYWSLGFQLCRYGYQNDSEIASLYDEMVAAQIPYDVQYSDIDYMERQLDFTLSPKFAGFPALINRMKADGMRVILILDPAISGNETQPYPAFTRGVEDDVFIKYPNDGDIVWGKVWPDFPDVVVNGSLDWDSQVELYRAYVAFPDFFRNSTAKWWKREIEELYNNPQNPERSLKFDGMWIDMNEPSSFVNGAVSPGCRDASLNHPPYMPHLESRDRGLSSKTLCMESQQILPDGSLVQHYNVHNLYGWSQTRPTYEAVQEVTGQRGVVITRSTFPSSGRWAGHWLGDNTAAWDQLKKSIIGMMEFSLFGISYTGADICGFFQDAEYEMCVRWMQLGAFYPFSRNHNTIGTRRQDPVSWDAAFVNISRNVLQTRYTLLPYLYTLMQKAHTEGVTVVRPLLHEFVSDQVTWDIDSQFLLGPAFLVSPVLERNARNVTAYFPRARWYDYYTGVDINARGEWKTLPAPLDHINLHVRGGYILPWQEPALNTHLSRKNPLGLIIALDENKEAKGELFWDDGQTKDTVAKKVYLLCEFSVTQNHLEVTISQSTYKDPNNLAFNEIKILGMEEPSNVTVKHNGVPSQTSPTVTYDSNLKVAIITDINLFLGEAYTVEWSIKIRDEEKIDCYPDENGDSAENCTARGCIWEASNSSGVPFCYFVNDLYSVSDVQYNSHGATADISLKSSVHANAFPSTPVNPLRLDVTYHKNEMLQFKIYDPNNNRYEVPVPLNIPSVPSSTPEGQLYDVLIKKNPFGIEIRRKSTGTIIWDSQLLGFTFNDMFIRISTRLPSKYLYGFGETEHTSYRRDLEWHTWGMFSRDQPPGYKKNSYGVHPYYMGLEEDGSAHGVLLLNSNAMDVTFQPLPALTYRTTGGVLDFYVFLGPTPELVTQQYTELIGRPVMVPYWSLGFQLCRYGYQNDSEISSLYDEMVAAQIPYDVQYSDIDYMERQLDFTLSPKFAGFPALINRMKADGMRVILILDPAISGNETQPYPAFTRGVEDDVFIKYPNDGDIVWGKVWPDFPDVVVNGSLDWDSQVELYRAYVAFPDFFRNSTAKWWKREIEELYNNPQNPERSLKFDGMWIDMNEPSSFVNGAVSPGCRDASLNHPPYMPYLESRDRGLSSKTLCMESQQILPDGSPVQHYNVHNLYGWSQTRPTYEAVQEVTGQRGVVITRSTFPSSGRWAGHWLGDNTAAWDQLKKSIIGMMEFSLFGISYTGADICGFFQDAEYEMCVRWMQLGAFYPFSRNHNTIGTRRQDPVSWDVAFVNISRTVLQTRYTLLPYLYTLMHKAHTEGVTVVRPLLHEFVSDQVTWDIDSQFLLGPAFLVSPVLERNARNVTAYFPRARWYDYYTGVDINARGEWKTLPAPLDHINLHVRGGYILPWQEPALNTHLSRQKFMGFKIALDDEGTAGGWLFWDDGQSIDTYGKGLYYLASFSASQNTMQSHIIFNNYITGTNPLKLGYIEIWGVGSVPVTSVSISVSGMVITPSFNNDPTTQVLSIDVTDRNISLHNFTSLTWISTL
1600

* * *

Assay: Inhibition of alpha-glucosidase (unknown origin) using p-nitrophenyl-alpha-D-glucopyranoside as substrate incubated for 15 to 25 mins by spectrophotometric analysis
Parameters: species or system Homo sapiens
What IC50 was measured for each of the following?
State just the number; it will be interpreted in µM.

Output measured IC50 for this item: CC(=O)Nc1ccc(O)c(/N=N/c2ccc(S(=O)(=O)Nc3ccc(Cl)nn3)cc2)c1
19.1

Output measured IC50 for this item: CC(=O)Nc1ccc(O)c(/N=N/c2ccc(S(=O)(=O)Nc3nc(C)cc(C)n3)cc2)c1
5.13

Output measured IC50 for this item: CC(=O)Nc1ccc(O)c(/N=N/c2ccc(S(=O)(=O)Nc3ncccn3)cc2)c1
1.39

Output measured IC50 for this item: CC(=O)Nc1ccc(O)c(/N=N/c2ccc(S(N)(=O)=O)cc2)c1
11

Output measured IC50 for this item: CC(=O)Nc1ccc(O)c(/N=N/c2ccc(S(=O)(=O)Nc3nccs3)cc2)c1
44.1
